# target: Upc2 (UniProt Q12151)
# Sequence: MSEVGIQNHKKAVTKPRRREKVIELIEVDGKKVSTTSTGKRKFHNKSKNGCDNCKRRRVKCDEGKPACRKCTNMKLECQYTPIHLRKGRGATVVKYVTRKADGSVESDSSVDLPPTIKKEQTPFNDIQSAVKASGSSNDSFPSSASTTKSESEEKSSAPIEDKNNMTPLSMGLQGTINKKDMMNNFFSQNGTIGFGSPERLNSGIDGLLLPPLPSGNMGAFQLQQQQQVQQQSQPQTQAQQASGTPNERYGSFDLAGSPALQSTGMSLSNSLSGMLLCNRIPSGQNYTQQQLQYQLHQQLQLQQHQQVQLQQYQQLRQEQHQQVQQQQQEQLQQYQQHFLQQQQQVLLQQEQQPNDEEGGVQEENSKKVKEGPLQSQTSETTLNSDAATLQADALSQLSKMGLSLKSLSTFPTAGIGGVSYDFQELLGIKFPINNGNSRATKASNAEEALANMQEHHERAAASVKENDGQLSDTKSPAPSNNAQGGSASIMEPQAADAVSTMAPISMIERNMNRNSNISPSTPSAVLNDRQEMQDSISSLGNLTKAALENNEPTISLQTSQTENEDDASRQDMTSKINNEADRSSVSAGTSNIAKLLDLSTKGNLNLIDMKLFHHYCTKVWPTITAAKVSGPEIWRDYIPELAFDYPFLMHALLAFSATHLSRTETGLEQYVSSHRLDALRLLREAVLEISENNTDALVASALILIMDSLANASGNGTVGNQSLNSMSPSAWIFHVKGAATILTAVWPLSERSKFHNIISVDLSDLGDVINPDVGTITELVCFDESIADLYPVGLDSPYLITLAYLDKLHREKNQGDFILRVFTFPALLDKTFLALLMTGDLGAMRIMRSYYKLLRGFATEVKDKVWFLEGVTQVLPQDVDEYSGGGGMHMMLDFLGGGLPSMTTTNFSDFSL
# experimentNotes: PBM E-score (8-mer binding enrichment) (E-score (-0.5 to 0.5)); higher = stronger / more preferred TF binding
# conditionNotes: protein concentration: 200 nM; construct: GST-full length
Whole data set: some 33,000 sequences, median “E-score (-0.5 to 0.5)” near -0.043, cut for the highest 2% near 0.37. The sample as a whole holds a higher share of the highest values than the screen did.

>  <chain>
AAACGATA

>  <PBM E-score>
0.459

$$$$
>  <chain>
GCACGATA

>  <PBM E-score>
-0.0168

$$$$
>  <chain>
TAACGATA

>  <PBM E-score>
0.387

$$$$
>  <chain>
CGCCGTTC

>  <PBM E-score>
0.339

$$$$
>  <chain>
ACACGATA

>  <PBM E-score>
0.15

$$$$
>  <chain>
TCCGACCA

>  <PBM E-score>
0.0761

$$$$
>  <chain>
AGTCGTTG

>  <PBM E-score>
0.0644

$$$$
>  <chain>
CGTCGTTA

>  <PBM E-score>
0.376

$$$$
>  <chain>
AGTCGAGC

>  <PBM E-score>
-0.152

$$$$
>  <chain>
ATTACCAA

>  <PBM E-score>
-0.131

$$$$
>  <chain>
CGGATACC

>  <PBM E-score>
0.0516

$$$$
>  <chain>
ACCATCTG

>  <PBM E-score>
-0.225

$$$$
>  <chain>
CGATTGAA

>  <PBM E-score>
0.0171

$$$$
>  <chain>
CACGACCA

>  <PBM E-score>
-0.0648

$$$$
>  <chain>
CTACCACA

>  <PBM E-score>
-0.234

$$$$
>  <chain>
AAAGAAGG

>  <PBM E-score>
-0.138

$$$$
>  <chain>
CAGATACG

>  <PBM E-score>
0.375

$$$$
>  <chain>
AACGACCG

>  <PBM E-score>
0.403

$$$$
>  <chain>
CTACGATA

>  <PBM E-score>
0.31

$$$$
>  <chain>
AACGACCT

>  <PBM E-score>
0.386

$$$$
>  <chain>
CCACGATA

>  <PBM E-score>
-0.0526

$$$$
>  <chain>
GTACGATA

>  <PBM E-score>
0.445

$$$$
>  <chain>
GGTCGTTA

>  <PBM E-score>
0.358

$$$$
>  <chain>
CTCGTCGC

>  <PBM E-score>
0.0828

$$$$
>  <chain>
CCGATACC

>  <PBM E-score>
-0.00432

$$$$
>  <chain>
AGACGATC

>  <PBM E-score>
-0.0293

$$$$
>  <chain>
AGCGACCT

>  <PBM E-score>
0.132

$$$$

----------
# target: Upc2 (UniProt Q12151)
# Sequence: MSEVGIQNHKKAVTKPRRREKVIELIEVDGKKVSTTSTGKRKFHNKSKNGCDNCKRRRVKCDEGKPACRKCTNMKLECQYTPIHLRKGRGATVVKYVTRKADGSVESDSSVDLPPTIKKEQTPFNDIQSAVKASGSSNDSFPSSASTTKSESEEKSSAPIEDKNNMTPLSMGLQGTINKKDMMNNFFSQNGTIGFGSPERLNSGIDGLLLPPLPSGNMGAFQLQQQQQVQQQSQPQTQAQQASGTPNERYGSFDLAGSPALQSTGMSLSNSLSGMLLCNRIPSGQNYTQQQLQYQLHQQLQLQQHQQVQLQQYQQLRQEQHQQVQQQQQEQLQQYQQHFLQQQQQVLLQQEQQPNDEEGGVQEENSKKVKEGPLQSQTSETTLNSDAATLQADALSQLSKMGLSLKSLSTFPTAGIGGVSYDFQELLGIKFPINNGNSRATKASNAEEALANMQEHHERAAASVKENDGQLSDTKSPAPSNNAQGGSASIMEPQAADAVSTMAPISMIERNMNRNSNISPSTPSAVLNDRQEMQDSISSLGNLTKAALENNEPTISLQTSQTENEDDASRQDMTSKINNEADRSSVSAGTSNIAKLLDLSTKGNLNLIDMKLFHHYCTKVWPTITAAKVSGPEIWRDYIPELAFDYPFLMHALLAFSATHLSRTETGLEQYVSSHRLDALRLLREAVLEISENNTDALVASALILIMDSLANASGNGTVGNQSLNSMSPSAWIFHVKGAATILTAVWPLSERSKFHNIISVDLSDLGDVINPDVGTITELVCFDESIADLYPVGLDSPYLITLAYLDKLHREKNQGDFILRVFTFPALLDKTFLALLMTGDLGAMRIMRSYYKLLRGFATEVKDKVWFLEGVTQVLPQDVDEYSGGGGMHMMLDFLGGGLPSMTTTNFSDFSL
# experimentNotes: PBM E-score (8-mer binding enrichment) (E-score (-0.5 to 0.5)); higher = stronger / more preferred TF binding
# conditionNotes: protein concentration: 200 nM; construct: GST-full length
The full ranking holds about 33,000 sequences; the median of “E-score (-0.5 to 0.5)” is about -0.043, and the highest 2% start at about 0.37. Only a selection was taken, and the highest values are over-represented in it overall.
Listed sequences paired with reported PBM E-score

>  <chain>
ACACGGGG

>  <PBM E-score>
-0.0346

$$$$
>  <chain>
AAAGCGAG

>  <PBM E-score>
0.217

$$$$
>  <chain>
ATATGAAG

>  <PBM E-score>
-0.19

$$$$
>  <chain>
CTTGACTC

>  <PBM E-score>
-0.0404

$$$$
>  <chain>
AGACGGGG

>  <PBM E-score>
-0.147

$$$$
>  <chain>
CCGTACAA

>  <PBM E-score>
0.413

$$$$
>  <chain>
AATCCAGG

>  <PBM E-score>
0.0108

$$$$
>  <chain>
ACGTAAAC

>  <PBM E-score>
0.345

$$$$
>  <chain>
AGCGTTAC

>  <PBM E-score>
0.0438

$$$$
>  <chain>
CTACGGGA

>  <PBM E-score>
0.00845

$$$$
>  <chain>
GCACGGGA

>  <PBM E-score>
0.0149

$$$$
>  <chain>
CAAACGAA

>  <PBM E-score>
0.467

$$$$
>  <chain>
CTACGGTC

>  <PBM E-score>
0.109

$$$$
>  <chain>
ATACGGGA

>  <PBM E-score>
0.382

$$$$

// data source = the supplement of paper PMC3334620
